procedure_summary: NCI Yeast Anticancer Drug Screen. Data for the rad50 strain (AID 155)
experimental_conditions: S. cerevisiae rad50 strain growth inhibition; at 50.0 µM
This is part of a sample that, as a whole, favours compounds with a hit. Of some 79,000 tested, about 15% had one in any assay. The source made the active and inactive calls. No stated cut-off is given here; in the data, active means growth inhibition above about 70%; inactive means the rest.
// allowed return values: active, inactive

molecule=COc1ccc2ccc3c(CCN(C)C#N)cc4c(c3c2c1OC(C)=O)OCO4 classification=inactive
molecule="C=C(S(=O)(=O)c1ccccc1)S(=O)(=O)c1ccccc1 (tested in a mixture with another compound)" classification=active

Input: Look up the recorded call for S=C1CSc2c(ccc3ccccc23)N1 in this test.
Output: inactive

Input: I would be grateful if you could indicate the recorded call for Cn1c(=O)cc(NC2OC(CO)C(O)C(O)C2O)[nH]c1=O (stereo not given) .
Output: inactive

Input: Write down the call the test reported for this molecule. Item: CCOc1ccc(NC(=O)C(Br)C(Br)C(=O)O)cc1 (stereo not given)
Output: active

Measured values drawn from PubChem BioAssay (NCI) for this set.
